Listed below: MIC values for each entry.
test system: Acinetobacter baumannii; experiment: Antimicrobial activity against Acinetobacter baumannii A24D after 4 days in presence of efflux pump inhibitor phenyl-arginine-beta-naphthylamide by broth microdilution method; assay type: functional; details: 96 h
Your answer is read as µg/mL, so omit the unit and give the number.

Sample records with MIC:
molecule	target.or.system	measurement.units	MIC
O=C(N[C@H](CO)[C@H](O)c1ccc([N+](=O)[O-])cc1)C(Cl)Cl [CHLORAMPHENICOL]	Acinetobacter baumannii	µg/mL	4
C[C@@H](O)[C@H]1C(=O)N2C(C(=O)O)=C(S[C@@H]3CN[C@H](C(=O)N(C)C)C3)[C@H](C)[C@H]12 [MEROPENEM]	Acinetobacter baumannii	µg/mL	0.094
CC(C)(O/N=C(\C(=O)N[C@@H]1C(=O)N2C(C(=O)[O-])=C(C[n+]3ccccc3)CS[C@H]12)c1csc(N)n1)C(=O)O [CEFTAZIDIME]	Acinetobacter baumannii	µg/mL	32
CO/N=C(\C(=O)N[C@@H]1C(=O)N2C(C(=O)[O-])=C(C[N+]3(C)CCCC3)CS[C@H]12)c1csc(N)n1 [CEFEPIME]	Acinetobacter baumannii	µg/mL	1
CCN1CCN(C(=O)N[C@@H](C(=O)N[C@@H]2C(=O)N3[C@@H]2SC(C)(C)[C@@H]3C(=O)O)c2ccccc2)C(=O)C1=O [PIPERACILLIN]	Acinetobacter baumannii	µg/mL	1

We now examine a further molecule.
Task: Give the measured MIC of O=C(O)c1cn(C2CC2)c2cc(N3CCNCC3)c(F)cc2c1=O [CIPROFLOXACIN] .
Output: 128

====

MIC listing for selected compounds.
test system: Acinetobacter baumannii; test: Antimicrobial activity against Acinetobacter baumannii A24D after 4 days in presence of efflux pump inhibitor phenyl-arginine-beta-naphthylamide by broth microdilution method; format: functional; details: 96 h

In [3]: df
Out[3]:
                                   compound  readout_label   result
0  NC[C@H]1O[C@H](O[C@H]2[C@H](O)[C@@H](O[C@H]3O[C@H](CO)[C@@H](O)[C@H](N)[C@H]3O)[C@H](N)C[C@@H]2N)[C@H](N)C[C@@H]1O            MIC  8 µg/mL
1  CN(C)c1ccc(O)c2c1C[C@H]1C[C@H]3[C@H](N(C)C)C(O)=C(C(N)=O)C(=O)[C@@]3(O)C(O)=C1C2=O            MIC  8 µg/mL

Task: What value of measured MIC is listed for C[C@@H](O)[C@H]1C(=O)N2C(C(=O)O)=C(SCCNC=N)C[C@H]12 [IMIPENEM ANHYDROUS] ?
Output: 0.064 µg/mL
